Target: T1, human IL-6 receptor (human, UniProt P08887 20-357, limits assumed, biotin-labeled in the ELISA and Octet assays (position not given))
T1 construct: also called hIL-6R; biotin-labeled hIL-6R
T1 sequence: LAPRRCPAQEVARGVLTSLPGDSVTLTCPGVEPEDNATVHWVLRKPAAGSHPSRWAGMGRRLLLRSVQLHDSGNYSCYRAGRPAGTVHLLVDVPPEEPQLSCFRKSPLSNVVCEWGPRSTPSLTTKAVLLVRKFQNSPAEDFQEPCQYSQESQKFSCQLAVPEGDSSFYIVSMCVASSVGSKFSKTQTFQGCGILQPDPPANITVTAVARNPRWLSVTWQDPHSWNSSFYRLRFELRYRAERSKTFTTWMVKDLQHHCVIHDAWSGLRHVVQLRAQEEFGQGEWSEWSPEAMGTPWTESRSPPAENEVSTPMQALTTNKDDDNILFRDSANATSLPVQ
Assay: SPR (Biacore T200), hIL-6R amine-coupled on CM5, antibody as analyte, equilibrium values, 1 mM ATP, 25 C; 1 mM ATP; Biacore, hIL-6R on CM5, antibody concentration series, 25 C
PROPERTY_NAME: Kd (µM)
Quick reminder: number only, in µM, skip the unit.

Known results for binders:
BINDER	DISPLAY_UNIT	Kd
6RAD2C1-4_026 (antibody, human IgG1, lambda, V domains shown, also called 6RAD2C1-4_26) VH: EVQLVESGGDLVKPGGGLRLSCAASGFTFSGYTMNWVRQAPGKGLEWVSSISSRSNYAHYADSVKGRFTISRDNAKNSLYLQMNSLRAEDTAVYYCARYGRLGDRNWVFDYWGQGTLVTVSS VL: QSALTQPPSASGSPGQTVTISCTGTSTDVGAYNYVSWYQQHPGKAPKLMIYKVSKKPSGVPDRFSGSKSGNTASLTVSGLQAEDEADYFCSLRAATTGVLFGGGTKLTVLG	µM	0.21
6RAD2C1-4_011 (antibody, human IgG1, lambda, V domains shown, also called 6RAD2C1-4_11) VH: EVQLVESGGDLVKPGGGLRLSCAASGFTFSGHTMNWVRQAPGKGLEWVSSISSRSSYIYYADSVKGRFTISRDNAKNSLYLQMNSLRAEDTAVYYCARYGALGQMNWVFDYWGQGTLVTVSS VL: QSALTQPPSASGSPGQTVTISCTGTSTDVGDYNYVSWYQQHPGKAPKLMIYSVSKRPSGVPDRFSGSKSGNTASLTVSGLQAEDEADYFCSSRSSSMNVLFGGGTKLTVLG	µM	0.23
6RDL3C1-4_085 (antibody, human IgG1, lambda, V domains shown, also called 6RDL3C1-4_85) VH: EVQLVESGGDLVKPGGGLRLSCAASGFTFSGHTMNWVRQAPGKGLEWVSSISSRSNYIYYADSVKGRFTISRDNAKNSLYLQMNSLRAEDTAVYYCARYGRLHDRNWVFDYWGQGTLVTVSS VL: QSALTQPPSASGSPGQTVTISCTGTSTDVGDYNYVSWYQQHPGKAPKLMIYQVSKKPSGVPDRFSGSKSGNTASLTVSGLQAEDEADYFCSSRSYGAGVVFGGGTKLTVLG	µM	0.39

Ask: Please give the documented Kd of 6RAD2C1-4_030 (antibody, human IgG1, lambda, V domains shown, also called 6RAD2C1-4_30) VH: EVQLVESGGDLVKPGGGLRLSCAASGFTFSSYTMNWVRQAPGKGLEWVSSISSRSGYAYYADSVKGRFTISRDNAKNSLYLQMNSLRAEDTAVYYCARFGALNTLNWVFDYWGQGTLVTVSS VL: QSALTQPPSASGSPGQTVTISCTGTSTDVGDYNYVSWYQQHPGKAPKLMIYQVSKKPSGVPDRFSGSKSGNTASLTVSGLQAEDEADYFCSTRTANAGVLFGGGTKLTVLG
Reply: 0.33

Ask: Please give the documented Kd of 6RAD2C1-4_005 (antibody, human IgG1, lambda, V domains shown, also called 6RAD2C1-4_05) VH: EVQLVESGGDLVKPGGGLRLSCAASGFTFSTHTMNWVRQAPGKGLEWVSSISSRSSYIHYADSVKGRFTISRDNAKNSLYLQMNSLRAEDTAVYYCARFGKLGERNWVFDYWGQGTLVTVSS VL: QSALTQPPSASGSPGQTVTISCTGTSTDVGDYNYVSWYQQHPGKAPKLMIYQVSKKPSGVPDRFSGSKSGNTASLTVSGLQAEDEADYFCSVRSDGHGPMFGGGTKLTVLG
Reply: 0.34

Ask: Please give the documented Kd of 6RAD2C1-4_001 (antibody, human IgG1, lambda, V domains shown, also called 6RAD2C1-4_01) VH: EVQLVESGGDLVKPGGGLRLSCAASGFTFSGHTMNWVRQAPGKGLEWVSSISSRSNYIYYADSVKGRFTISRDNAKNSLYLQMNSLRAEDTAVYYCARYGRLHDRNWVFDYWGQGTLVTVSS VL: QSALTQPPSASGSPGQTVTISCTGTSTDVGDYNYVSWYQQHPGKAPKLMIYQVSKKPSGVPDRFSGSKSGNTASLTVSGLQAEDEADYFCSSRSYGAGVVFGGGTKLTVLG
Reply: 0.3

Ask: Please give the documented Kd of 6RAD2C1-4_076 (antibody, human IgG1, lambda, V domains shown, also called 6RAD2C1-4_76) VH: EVQLVESGGDLVKPGGGLRLSCAASGFTFSGYTMNWVRQAPGKGLEWVSSISSRSSYIDYADSVKGRFTISRDNAKNSLYLQMNSLRAEDTAVYYCARYGALGQRNWVFDYWGQGTLVTVSS VL: QSALTQPPSASGSPGQTVTISCTGTSTDVGDYNYVSWYQQHPGKAPKLMIYQTSKRPSGVPDRFSGSKSGNTASLTVSGLQAEDEADYFCSSRSIKHPVFGGGTKLTVLG
Reply: 0.25
